Cited source for all entries: patent US20260297042A1

target: WEE1 (Homo sapiens, UniProt P30291); construct: purchased Thermo Fisher PR7373A; assay: Selectivity versus WEE1 assay (ADP-Glo enzymatic assay); type: biochemical; settings: fold difference in selectivity for PKMYT1 over WEE1; banded
Sequence (P30291 whole entry): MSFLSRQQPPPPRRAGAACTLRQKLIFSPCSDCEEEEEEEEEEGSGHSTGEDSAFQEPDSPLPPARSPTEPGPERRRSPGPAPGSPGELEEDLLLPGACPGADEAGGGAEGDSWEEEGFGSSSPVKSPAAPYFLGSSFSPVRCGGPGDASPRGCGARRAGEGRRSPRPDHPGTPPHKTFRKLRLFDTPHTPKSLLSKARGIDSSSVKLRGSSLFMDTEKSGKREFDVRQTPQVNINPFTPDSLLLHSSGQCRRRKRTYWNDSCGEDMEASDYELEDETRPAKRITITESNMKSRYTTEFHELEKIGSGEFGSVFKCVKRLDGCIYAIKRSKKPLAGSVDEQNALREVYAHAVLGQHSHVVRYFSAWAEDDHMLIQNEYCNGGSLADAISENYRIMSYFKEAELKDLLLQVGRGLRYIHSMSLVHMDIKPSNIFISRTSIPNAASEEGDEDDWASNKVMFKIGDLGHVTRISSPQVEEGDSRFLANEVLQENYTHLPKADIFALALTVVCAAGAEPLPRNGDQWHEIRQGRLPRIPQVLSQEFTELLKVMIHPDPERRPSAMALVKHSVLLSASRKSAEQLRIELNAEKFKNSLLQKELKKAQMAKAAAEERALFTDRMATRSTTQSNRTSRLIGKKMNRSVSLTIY
Where a name gives a salt, the structure may show the parent alone.
Reported property: PKMYT1 vs. WEE1 selectivity

Known results for compounds:
- Compound: "CCN(CCS(C)(=O)=O)C(=O)Cn1cc(C)c(Nc2ncc(C(=O)Nc3c(C)ccc(O)c3C)s2)n1 [BAA-555]"
  PKMYT1 vs. WEE1 selectivity: "Y (1000-5000 fold)"
- Compound: "Cc1ccc(O)c(C)c1NC(=O)c1cnc(Nc2nn(C)c3ccc(C(F)(F)F)cc23)s1 [BAA-454]"
  PKMYT1 vs. WEE1 selectivity: "X (100-<1000 fold)"
- Compound: "Cn1ccc(Nc2ncc(C(=O)Nc3c(F)ccc(O)c3Cl)s2)n1 [BAA-480]"
  PKMYT1 vs. WEE1 selectivity: "X (100-<1000 fold)"
- Compound: "COCCn1cc(C)c(Nc2ncc(C(=O)Nc3c(C)ccc(O)c3C)s2)n1 [BAA-490]"
  PKMYT1 vs. WEE1 selectivity: "X (100-<1000 fold)"
- Compound: "CCN(CC)C(=O)Cn1cc(C)c(Nc2ncc(C(=O)Nc3c(C)cc(Br)c(O)c3C)s2)n1 [BAA-608]"
  PKMYT1 vs. WEE1 selectivity: "X (100-<1000 fold)"
- Compound: "Cc1ccc(O)c(C)c1NC(=O)c1cnc(Nc2cccc3c2OCCO3)s1 [BAA-529, TFA salt]"
  PKMYT1 vs. WEE1 selectivity: "X (100-<1000 fold)"
- Compound: "Cc1cn(CC(=O)N2CCCC2C(F)(F)F)nc1Nc1ncc(C(=O)Nc2c(C)ccc(O)c2C)s1 (stereo not drawn) [BAA-493]"
  PKMYT1 vs. WEE1 selectivity: "X (100-<1000 fold)"
- Compound: "Cc1ccc(O)c(C)c1NC(=O)c1cnc(Nc2cccc(F)n2)s1 [BAA-406]"
  PKMYT1 vs. WEE1 selectivity: "X (100-<1000 fold)"

Quick one: give measured PKMYT1 vs. WEE1 selectivity for Cc1ccc(O)c(C)c1NC(=O)c1cnc(Nc2ccccn2)s1 [BAA-421]
X (100-<1000 fold)

Quick one: give measured PKMYT1 vs. WEE1 selectivity for COCCN(C)C(=O)Cn1cc(C)c(Nc2ncc(C(=O)Nc3c(C)ccc(O)c3C)s2)n1 [BAA-549]
X (100-<1000 fold)

Quick one: give measured PKMYT1 vs. WEE1 selectivity for CCn1nc(Nc2ncc(C(=O)Nc3c(C)ccc(O)c3C)s2)cc1C [BAA-495]
W (10-<100 fold)

Quick one: give measured PKMYT1 vs. WEE1 selectivity for Cc1cn(CCN(C)C)nc1Nc1ncc(C(=O)Nc2c(C)ccc(O)c2C)s1 [BAA-501]
W (10-<100 fold)

Quick one: give measured PKMYT1 vs. WEE1 selectivity for Cc1nc(Nc2ncc(C(=O)Nc3c(C)ccc(O)c3C)s2)cc(N2CCOCC2)n1 [BAA-572]
W (10-<100 fold)

Quick one: give measured PKMYT1 vs. WEE1 selectivity for Cc1cncc(Nc2ncc(C(=O)Nc3c(C)ccc(O)c3C)s2)n1 [BAA-570]
X (100-<1000 fold)
